All figures here come from the NIST ThermoML archive (doi:10.1016/j.fluid.2014.11.024).

Details: 328.15 K; 101.33 kPa; Liquid; Falling or rolling sphere viscometry
property: viscosity (mPa·s)

// solved cases for viscosity follow
INSERT INTO measurements (compound, observed_result) VALUES
  ('C[NH+]1CCCC1=O.O=C[O-] [N-methyl-2-oxopyrrolidinium formate]', 1.377),
  ('CCCCC(=O)[O-].C[NH+]1CCCC1=O [N-methyl-2-oxopyrrolidinium pentanoate]', 2.087),
  ('CCCC(=O)[O-].C[NH+]1CCCC1=O [N-methyl-2-oxopyrrolidinium butanoate]', 1.918),
  ('CC(=O)[O-].C[NH+]1CCCC1=O [N-methyl-2-oxopyrrolidinium acetate]', 1.54);

(I) CCC(=O)[O-].C[NH+]1CCCC1=O [N-methyl-2-oxopyrrolidinium propionate]
(II) CCCCCC(=O)[O-].C[NH+]1CCCC1=O [N-methyl-2-oxopyrrolidinium hexanoate]
Among I and II , whose measured viscosity is the smaller figure? Refer to your chosen entry by its label in the reply. I
